target: Alpha-1D adrenergic receptor (Homo sapiens); details: Compound concentration 10 µM
Description: PDSP Primary Binding target: ADRA1D - Compounds are tested at 10 uM concentration, plate are incubated at room temperature in the dark for 90 minutes. Reaction are stopped by vacuum filtration onto 0.3% polyethyleneimine soaked filter mats using Filtermate harvester. Scintilation cocktail is then melted onto microwave-dried filters on a hot plate and the radio activity is counted in Microbia counter.
Hi, to clarify the labels: y covers inhibition from 10% upward, n covers anything below 10%.

Q: Check this compound for inhibition at or above 10%: CN1C[C@H](C(=O)N[C@]2(C)O[C@@]3(O)[C@@H]4CCCN4C(=O)[C@H](Cc4ccccc4)N3C2=O)C[C@@H]2c3cccc4[nH]cc(c34)C[C@H]21
A: y

Q: And the next one, N[C@H](C(=O)O)c1ccc(C(=O)O)c(C(=O)O)c1 ?
A: y

Q: Same for CCCSc1nc(N[C@@H]2C[C@H]2c2ccc(F)c(F)c2)c2nnn([C@@H]3C[C@H](OCCO)[C@@H](O)[C@H]3O)c2n1
A: y

Q: And the next one, O=c1ccc2ccc(OCCCCN3CCN(c4cccc5sccc45)CC3)cc2[nH]1 ?
A: y

Q: Record: O=C(Cc1ccccc1)Nc1nc2ccc(Cl)cc2c2nc(-c3ccco3)nn12
A: n

Q: What do you get for CCN(CC)CCCCC1CCN(CC(=O)N2c3ccccc3C(=O)Nc3cccnc32)CC1 ?
A: n

Q: Repeat for the following compound: Cc1csc2c(N[C@@H](C)CN3CCN(S(=O)(=O)c4ccc(Cl)c(Cl)c4)CC3)ncnc12
A: n

Q: Lookup COC(=O)[C@H]1[C@H]2C[C@H]3c4[nH]c5ccccc5c4CCN3C[C@H]2CC[C@@H]1O
A: y

Q: Moving on to NCCc1cn(S(=O)(=O)c2c(Cl)nc3sccn23)c2ccccc12
A: y

---

target: Alpha-1D adrenergic receptor (Homo sapiens) (UniProt P25100); settings: Compound concentration 10 µM; call rule not given here
Sequence (P25100 whole entry): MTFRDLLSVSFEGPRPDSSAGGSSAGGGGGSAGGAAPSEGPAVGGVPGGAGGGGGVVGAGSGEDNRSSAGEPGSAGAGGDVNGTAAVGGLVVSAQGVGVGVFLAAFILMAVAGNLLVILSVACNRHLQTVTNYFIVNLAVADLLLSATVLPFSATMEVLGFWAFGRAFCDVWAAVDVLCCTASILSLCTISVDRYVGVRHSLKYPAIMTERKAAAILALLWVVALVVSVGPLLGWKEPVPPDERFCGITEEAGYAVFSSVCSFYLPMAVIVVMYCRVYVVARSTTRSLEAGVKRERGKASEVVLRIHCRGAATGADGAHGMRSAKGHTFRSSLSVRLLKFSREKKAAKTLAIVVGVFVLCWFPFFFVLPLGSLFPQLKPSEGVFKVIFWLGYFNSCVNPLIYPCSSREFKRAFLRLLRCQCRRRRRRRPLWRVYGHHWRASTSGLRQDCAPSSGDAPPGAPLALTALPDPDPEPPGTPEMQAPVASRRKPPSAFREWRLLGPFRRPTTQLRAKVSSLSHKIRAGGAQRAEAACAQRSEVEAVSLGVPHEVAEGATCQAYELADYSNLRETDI
Your answer must be one of the following: active, inactive

Q: Outcome logged for O=C(c1cc2c(cc1F)OC(c1ccc(F)cc1)(c1ccc(Cl)cc1Cl)O2)N1CCOCC1 (stereo unspecified) in this assay:
A: inactive

Q: Proceed to CC(C)(C)NC[C@H](O)COc1nsnc1N1CCOCC1
A: inactive

Q: Field entry: CCCCCNC(=O)NS(=O)(=O)c1cc([N+](=O)[O-])ccc1NC1CCCCC1
A: inactive

Q: Now the same for OCc1cc(C(O)CNCCCCCCOCCCCc2ccccc2)ccc1O (stereo unspecified)
A: active

Q: Then this molecule: CNC[C@H](O)c1ccc(O)c(O)c1
A: inactive

Q: And for CC(C)(C(=O)O)c1ccc(C(O)CCCN2CCC(C(O)(c3ccccc3)c3ccccc3)CC2)cc1 (stereo unspecified) ?
A: inactive

---

target: Alpha-2A adrenergic receptor (Homo sapiens) (UniProt P08913); conditions: Compound concentration 10 µM; call rule not given here
Sequence (P08913 whole entry): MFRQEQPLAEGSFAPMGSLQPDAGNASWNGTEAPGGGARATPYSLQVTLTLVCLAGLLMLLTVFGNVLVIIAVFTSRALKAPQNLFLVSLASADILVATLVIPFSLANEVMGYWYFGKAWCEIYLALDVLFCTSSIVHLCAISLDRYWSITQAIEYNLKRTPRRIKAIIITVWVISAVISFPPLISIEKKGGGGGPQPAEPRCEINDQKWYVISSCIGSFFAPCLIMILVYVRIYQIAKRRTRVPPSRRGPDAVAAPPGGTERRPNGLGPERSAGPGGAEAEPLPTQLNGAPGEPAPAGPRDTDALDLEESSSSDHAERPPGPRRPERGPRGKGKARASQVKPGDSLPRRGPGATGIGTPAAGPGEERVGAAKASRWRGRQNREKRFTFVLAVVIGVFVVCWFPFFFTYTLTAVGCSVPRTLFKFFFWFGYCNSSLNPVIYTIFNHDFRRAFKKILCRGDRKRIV
Give one outcome, nothing more. List: class 1 (active), class 0 (inactive)

Q: Call for entry NCCc1c[nH]c2ccc(C(N)=O)cc12 :
A: class 1

Q: For CNc1nc(NCc2ccc(NS(C)(=O)=O)cc2Cl)cc(-c2ccccn2)n1 then?
A: class 0

Q: Could you do the same for COc1ccccc1CN[C@H]1C2CCN(CC2)[C@H]1C(c1ccccc1)c1ccccc1 , please?
A: class 0

Q: Same read-out for Cc1cc(C)cc(C(=O)N(C)[C@H](Cc2ccc(-c3ccccc3)cc2)C(=O)N[C@@H](Cc2c[nH]c3ccccc23)C(=O)O)c1 ?
A: class 0

Q: Again, but for Cc1ccccc1N1CCN(S(=O)(=O)C[C@]23CC[C@H](C[C@@H]2NC(=O)[C@@H](N)CCS(C)(=O)=O)C3(C)C)CC1
A: class 0

Q: What about Cc1cc(C)c(N)c(C#Cc2cccc(F)c2)n1 ?
A: class 0

Q: Next molecule: CCCn1c(=O)c2[nH]c(-c3cnn(Cc4cccc(C(F)(F)F)c4)c3)nc2n(CC)c1=O
A: class 0

Q: Another molecule: OC[C@H]1O[C@@H](n2cnc3c(NC4CCCC4)ncnc32)[C@H](O)[C@@H]1O
A: class 0

Q: Now the same for CC(C)NCC(O)COc1ccc(CCOCC2CC2)cc1 (stereo not given)
A: class 0

Q: # repeat for CC(C)NCC(O)c1ccc(N)c(C#N)c1 (stereo not given)
A: class 0

---

target: Muscarinic acetylcholine receptor M5 (Homo sapiens); settings: Compound concentration 10 µM
Description: PDSP Primary Binding target: CHRM5 - Compounds are tested at 10 uM concentration, plate are incubated at room temperature in the dark for 90 minutes. Reaction are stopped by vacuum filtration onto 0.3% polyethyleneimine soaked filter mats using Filtermate harvester. Scintilation cocktail is then melted onto microwave-dried filters on a hot plate and the radio activity is counted in Microbia counter.
quantity: inhibition (%)
# unit: % | format: bare number

Q: What inhibition value was documented for this compound, COc1ccc(/C=C/CCCCOc2ccc(C(=O)c3cccc(C(=O)O)c3)cc2CCC(=O)O)cc1 ?
A: 3.16

Q: // next record CN1CCC(=C2c3ccccc3CC(=O)c3sccc32)CC1
A: 93.2

Q: Same question, FC(F)(F)c1cccc(-c2noc(-c3cc(-c4ccccc4)c(C(F)(F)F)s3)n2)c1 this time
A: -4.18

Q: # iterate: COc1ccc(NS(=O)(=O)c2sc3ccc(Cl)cc3c2C)cc1N1CCNCC1
A: 16.8

Q: Consider next the compound CN1CCCC(n2nc(Cc3ccc(Cl)cc3)c3ccccc3c2=O)CC1 (stereo not given) in the same way.
A: 43.1

---

target: Muscarinic acetylcholine receptor M3 (Homo sapiens); settings: Compound concentration 10 µM; call rule not given here
# output must be one of yes (1) (active), no (0) (inactive)

Q: In this assay, the call recorded for Cc1cc([C@@H](C)Nc2cccc(-c3cc(C)c(C(=O)N[C@@H](C)C(=O)O)c(C)c3)c2)ccc1Cl was what?
A: no (0)

Q: Please answer likewise for CCCCCNC(=N)N/N=C/c1c[nH]c2ccc(OC)cc12
A: no (0)

Q: Now consider O=C1O[C@]2(CC[C@H](C(=O)Nc3ccn(-c4ccccc4F)n3)CC2)c2cnccc21 .
A: no (0)

Q: Queued: CC1CCN(CC[C@H]2CCCN2S(=O)(=O)c2cccc(O)c2)CC1
A: no (0)

Q: Next record, please: O=c1ccc2ccc(OCCCCN3CCN(c4cccc5sccc45)CC3)cc2[nH]1
A: no (0)

Q: // next record C[C@H](NC[C@H](O)CP(=O)(O)CC1CCCCC1)c1ccc(Cl)c(Cl)c1
A: no (0)

Q: Next up: COc1ccc(Br)cc1S(=O)(=O)NC(=O)/C=C/c1ccccc1Cc1ccc2ccccc2c1
A: no (0)

Q: Queued: COc1ccc(/C=C/CCCCOc2ccc(C(=O)c3cccc(C(=O)O)c3)cc2CCC(=O)O)cc1
A: no (0)

Q: Now consider O=C(O)Cn1c(C(=O)Nc2nc(-c3ccccc3Cl)cs2)cc2ccccc21 .
A: no (0)

Q: Do the same for Cc1ccccc1C(=O)Nc1ccc(C(=O)N2CCCC(O)c3cc(Cl)ccc32)c(C)c1 (centres undefined) please
A: no (0)

Q: Then what about the molecule CC(C)[C@H](CO)Nc1nc(Nc2cccc(Cl)c2)c2ncn(C(C)C)c2n1 ?
A: no (0)

Q: Queued: Cc1csc(NC(=O)c2cc(F)cc(Oc3cncnc3)c2)n1
A: no (0)

Q: Please do the same for COc1ccc2cc(S(=O)(=O)N[C@H](CC(=O)N[C@H](Cc3ccc(CN4[C@H](C)CCC[C@@H]4C)cc3)C(=O)N(C)C(C)C)c3ccc4c(c3)OCO4)ccc2c1 as well.
A: no (0)

Q: Entry COc1ccc(CNC(=O)c2cc(-c3cncc(Cl)c3)cnc2-c2ccccn2)nc1OC please
A: no (0)

Q: Please answer likewise for CCOC(=O)c1c(C)[nH]c2ccc3c(c12)CN1CCc2cc(OC)ccc2C1O3 (centres undefined)
A: yes (1)

Q: For N[C@H](C(=O)O)c1ccc(C(=O)O)c(C(=O)O)c1 then?
A: no (0)

Q: One more molecule: N#Cc1ccc2[nH]cc(CCCCN3CCN(c4ccc5oc(C(N)=O)cc5c4)CC3)c2c1
A: no (0)

Q: Would you kindly repeat that for COc1cccc([C@H](O)C2CCN(CCc3ccc(F)cc3)CC2)c1OC ?
A: no (0)

Q: Can you check CNC[C@H](O)c1cccc(O)c1 next?
A: no (0)

Q: What would you report for CCc1cc(C(C)=O)c(O)cc1OCCCCCC(C)(C)c1nn[nH]n1 ?
A: no (0)

Q: // query: COc1cccc(-c2c(C)n(Cc3c(F)cccc3C(F)(F)F)c(=O)n(C[C@H](NCCCC(=O)O)c3ccccc3)c2=O)c1F
A: no (0)

Q: Cc1nc(-c2ccc(C(F)(F)F)cc2)sc1COc1ccc([C@H](CC(=O)O)c2ccon2)cc1 , same question.
A: no (0)

Q: // query: NCCc1c[nH]c2ccc(C(N)=O)cc12
A: no (0)

Q: Next molecule up: O=c1ccn([C@@H]2O[C@H](COP(=O)(O)OP(=O)(O)OP(=O)(O)O)[C@@H](O)[C@H]2O)c(=O)[nH]1
A: no (0)

Q: Repeat for the following molecule: c1nc(CC2CCNCC2)c[nH]1
A: no (0)

Q: Try this molecule next: Nc1nc(NCCc2ccc(O)cc2)nc2nc(-c3ccco3)nn12
A: no (0)

Q: Follow-up entry: OC1(c2ccc(Cl)cc2)CCN(Cc2c[nH]c3ccccc23)CC1
A: no (0)

Q: Would you kindly repeat that for O=S1(=O)c2cccc3cccc(c23)N1CCCN1CCN(c2ccc(F)cc2)CC1 ?
A: no (0)

Q: For COc1ccc(C2(O)OC(=O)C(c3ccc4c(c3)OCO4)=C2Cc2cc(OC)c(OC)c(OC)c2)cc1 (centres undefined) then?
A: no (0)

Q: Next: CCCCC#Cc1nc(NC)c2ncn([C@@H]3O[C@H](CO)[C@@H](O)[C@H]3O)c2n1
A: no (0)

Q: Follow-up entry: CC[C@@H]1CN2C(=O)N(C)c3nc(-c4ccccc4)[nH]c3C2=N1
A: no (0)

Q: Consider next the molecule NC[C@@H]1O[C@H](C23CC4CC(CC(C4)C2)C3)Cc2c1ccc(O)c2O in the same way.
A: no (0)

Q: What do we get for C=CCN1C[C@H](C)N([C@H](c2ccc(C(=O)N(CC)CC)cc2)c2cccc(O)c2)C[C@H]1C ?
A: no (0)

Q: Ok, now O=C1N/C(=N/c2ccccc2F)S/C1=C\c1ccc(C(=O)O)cc1
A: no (0)

Q: Can you handle Cc1cc(C)cc(C(=O)N(C)[C@H](Cc2ccc(-c3ccccc3)cc2)C(=O)N[C@@H](Cc2c[nH]c3ccccc23)C(=O)O)c1 next?
A: no (0)

Q: Consider next the molecule CCN(CC)CCCCC1CCN(CC(=O)N2c3ccccc3C(=O)Nc3cccnc32)CC1 in the same way.
A: yes (1)

Q: Next molecule up: C[C@@H](NCCc1ccc(O)cc1)[C@@H](O)c1ccc(O)cc1 (relative stereo)
A: no (0)

Q: Please give the result for CCC[C@H](Oc1cc(C)c(-n2cc(C(F)(F)F)cn2)c(C)c1)c1ccc(C(=O)NCCC(=O)O)cc1 too.
A: no (0)

Q: Same for Cc1c(F)cccc1NC(=O)Nc1ccc(Cl)c(S(=O)(=O)[C@H]2CCCNC2)c1O
A: no (0)

src = ChEMBL document CHEMBL5442219
